I'd be grateful if you could share measured Emin for these entries.
# experimental-system: Muscarinic acetylcholine receptor M1 (Homo sapiens) (UniProt P11229)
# Sequence (whole entry): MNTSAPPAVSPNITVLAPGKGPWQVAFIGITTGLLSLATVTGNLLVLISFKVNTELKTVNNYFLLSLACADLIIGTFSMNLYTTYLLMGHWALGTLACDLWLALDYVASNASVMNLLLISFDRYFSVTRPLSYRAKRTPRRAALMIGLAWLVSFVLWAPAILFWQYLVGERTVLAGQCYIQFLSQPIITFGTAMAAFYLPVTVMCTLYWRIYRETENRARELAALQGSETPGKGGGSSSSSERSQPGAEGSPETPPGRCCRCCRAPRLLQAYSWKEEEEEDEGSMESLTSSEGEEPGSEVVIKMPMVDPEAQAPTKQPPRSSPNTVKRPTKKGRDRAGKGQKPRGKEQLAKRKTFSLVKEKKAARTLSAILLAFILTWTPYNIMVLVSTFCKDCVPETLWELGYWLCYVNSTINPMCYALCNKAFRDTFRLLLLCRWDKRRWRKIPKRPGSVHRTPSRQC
# experiment: Antagonist activity at recombinant human M1 receptor expressed in CHO cells co-expressing Gqi5 by calcium mobilization assay relative to acetylcholine
# Type: functional, cell-based

Which measured Emin value corresponds to `O=C(C1CCN(c2cc(Oc3ccc(F)cc3F)ncn2)CC1)N1CCc2ccccc2C1` ?
< 6%

Given the entry `O=C(C1CCN(c2cc(Oc3ccc(F)cc3F)ncn2)CC1)N1Cc2ccccc2C1` , report its measured Emin.
18.2%

Find the recorded Emin belonging to `O=C(C1CCN(c2cc(Oc3ccc(Cl)cc3)ncn2)CC1)N1CCc2ccccc2C1` and report it.
< 6%

Could you tell me which Emin is on file for `O=C(C1CCN(c2cc(Oc3ccccc3F)ncn2)CC1)N1CCc2ccccc2C1` ?
< 6%
